- Protocol Text: reduction of polyQ htt aggregates in cells – imaging, exon1htt(103Q)mCFP cells, high-content imaging, primary screen (AID 483);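 note: compound exposure lasted 3 days before fixation; percent of the per-plate median nuclei count of sample wells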
- Condition Info: exon1htt(103Q)mCFP cell line, aggregate imaging, at 2 µM; measured here: cell count, toxicity
Measured Endpoint: nuclei count (%)
Answers are plain numbers, in %.

Compound	nuclei count (%)
Cc1onc(-c2c(Cl)cccc2Cl)c1C(=O)NCCCN1CCOCC1	100
CCCCC(CC)C(=O)Nc1ccc(Cl)cn1 (stereo unspecified)	102
Cc1cn([C@H]2C=C[C@@H](CO)O2)c(=O)[nH]c1=O	106
CCOC(=O)C1=C(CC)Nc2ccccc2N=C1NC(=O)Nc1ccccc1OC	116
Cc1ccc(S(=O)(=O)NCCCNC(=O)N2CCOCC2)cc1	104
CCOCCCNc1ncnc2c1[nH]c1ccccc12	72.9

// input: 5 compounds below; output: nuclei count for each
1. Cn1c(=O)c2c(nc(N3CCCCC3)n2CCSc2nc3ccccc3o2)n(C)c1=O
2. Cn1cccc1-c1nc2ccc(NC(=O)c3ccco3)cc2[nH]1
3. COc1ccccc1C(=O)Nc1c2c(nn1-c1cccc(C)c1C)CS(=O)(=O)C2
4. Cc1ccccc1N(CC(=O)NCC1CCCO1)C(=O)C1(C)CC(=O)N=C2C=CC=CN21 (stereo unspecified)
5. O=S(=O)(NCCc1ccccc1F)c1cccc(S(=O)(=O)N2CCOCC2)c1

71.3
86.3
79.5
100
105

* * *

Please go through the items and note down their cell count.
- Protocol Text: inhibitors of TNFa-induced NFkB p65 translocation, primary screen, imaging, HUVEC, MLSMR starter and 10KST1 sets (AID 438);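 note: compound added about 3h40 before a 20 min TNFalpha stimulation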
- Condition Info: HUVEC TNFa-induced p65 nuclear translocation; measured here: nuclei count (cytotoxicity indicator), at 2.08 µM

Recorded results for 3 compounds are shown here.
Compound	Reported
COc1ccc(-c2cc(C(F)F)n3ncc(C(=O)NCC4CCCO4)c3n2)cc1 (centres undefined)	244
O=C(c1ccc(NS(=O)(=O)c2cccs2)cc1)N1CCCCC1	287
Cc1cccc(-n2ncc(C#N)c2N)c1	644

Would you mind listing cell count for each of the following compounds?
1. O=C(CSc1nnc2scc(-c3ccccc3)n12)N1CCN(Cc2ccccc2)CC1
2. COc1ccc(Cl)cc1C(=O)n1nc(C)cc1C
3. c1ccc2c(-c3nc(C4CCCCC4)no3)cc(-c3ccncc3)nc2c1
4. CCC(=O)N1CCc2cc(S(=O)(=O)CCC(=O)Nc3nc(C)cs3)ccc21
5. Cc1nc(=S)n(-c2ccccc2)[nH]1
6. CCCN1C2=C(C(=O)CCC2)C(c2ccc(O)c(Br)c2)C2=C1CCCC2=O

1: 703; 2: 346; 3: 570; 4: 606; 5: 638; 6: 736

* * *

- Protocol Text: inhibitors of TNFa-induced NFkB p65 translocation, primary screen, imaging, HUVEC, MLSMR starter and 10KST1 sets (AID 438);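 note: compound added about 3h40 before a 20 min TNFalpha stimulation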;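 for inhibition: signal is the nuclear over cytoplasmic p65 intensity ratio per well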
- Condition Info: HUVEC TNFa-induced p65 nuclear translocation; at 2 µM, stronger effect = higher value, 0% TNFa-plus-vehicle, 100% no-TNFa wells
Calls of active or inactive are those of the source.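 The calls were made as follows: active = inhibition above 20% together with a positive visual image hit; inconclusive = visual image hit but inhibition not above 20%; inactive = no visual image hit.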
Measured Endpoint: inhibition

State the recorded inhibition for every item in the following list.
1. CCN1CCN(Cc2c(C)[nH]c3ccc(OC)cc3c2=O)CC1
2. Clc1ccccc1OCc1nn2c(-c3ccncc3)nnc2s1
3. OCc1nc2ccccc2n1CC(O)Cn1ccc2ccccc21 (configuration not stated)

1: 18.7% (inactive); 2: 2.6% (inactive); 3: 2.9% (inactive)

Look up inhibition for the entries below, preserving their order.
1. CCN1CCN(c2nc(-c3cccnc3)nc3ccccc23)CC1
2. N#CC(C(=O)CCN1C(=O)C2CC=CCC2C1=O)c1nc2ccccc2[nH]1 (configuration not stated)
3. O=C(c1ccco1)N1CCN(c2c(-c3ccccc3)c3cc(Cl)ccc3[nH]c2=O)CC1
4. Cc1ccc(NC(=O)C2CCCN2C(=O)Oc2ccccc2)cc1 (configuration not stated)
5. C=CCC(Nc1ccco1)c1ccccc1 (configuration not stated)
6. CCOC(=O)C1=C(C)NC(=O)C(C#N)C1c1ccco1 (configuration not stated)
7. Cc1nnc(C)n1/N=C/c1cccc(Oc2ccccc2)c1

11.2% (inactive)
-5.7% (inactive)
2.1% (inactive)
6% (inactive)
2.5% (inactive)
-1.2% (inactive)
-0.6% (inactive)

Hi! Can you tell me inhibition for each of these compounds?
1. Nc1nnc(SCCOc2ccccc2)s1
2. CCc1cc(-c2[nH]ncc2-c2ccc3c(c2)OCO3)c(O)cc1O

["-0.9% (inactive)", "0.5% (inactive)"]
